STUDY_TARGET: CBP KIX domain (residues 586–672) (mouse, UniProt P45481 586-672)
Sequence (P45481 586-672): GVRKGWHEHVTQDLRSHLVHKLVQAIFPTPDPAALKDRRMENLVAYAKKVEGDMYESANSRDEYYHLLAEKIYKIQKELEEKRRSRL
ASSAY_METHOD_TEXT: NMR
pKd: −log10 of the molar value.

BINDER	pKd
FSDLPWPL [BMAL1 TAD switch peptide (residues 619–626, FSDLPWPL)]	< 3.30
